meta.source: paper PMC2862773

target: E. coli ATP synthase (purified F1 or membrane bound F1Fo) (Escherichia coli, UniProt P0ABA6+P0ABB0+P0ABB4); assay type: biochemical; conditions: purified F1 or membrane bound F1Fo
Sequence (P0ABA4 whole entry): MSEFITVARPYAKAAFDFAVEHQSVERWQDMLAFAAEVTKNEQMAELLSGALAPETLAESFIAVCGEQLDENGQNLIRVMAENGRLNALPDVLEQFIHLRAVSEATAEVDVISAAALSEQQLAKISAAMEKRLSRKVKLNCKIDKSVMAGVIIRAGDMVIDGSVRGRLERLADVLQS
Sequence (P0A6E6 2-139, further chain): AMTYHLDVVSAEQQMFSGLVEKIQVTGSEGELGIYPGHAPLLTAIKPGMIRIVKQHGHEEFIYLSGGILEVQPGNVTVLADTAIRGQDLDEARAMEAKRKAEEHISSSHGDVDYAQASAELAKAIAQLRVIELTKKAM
Sequence (P0ABA6 whole entry): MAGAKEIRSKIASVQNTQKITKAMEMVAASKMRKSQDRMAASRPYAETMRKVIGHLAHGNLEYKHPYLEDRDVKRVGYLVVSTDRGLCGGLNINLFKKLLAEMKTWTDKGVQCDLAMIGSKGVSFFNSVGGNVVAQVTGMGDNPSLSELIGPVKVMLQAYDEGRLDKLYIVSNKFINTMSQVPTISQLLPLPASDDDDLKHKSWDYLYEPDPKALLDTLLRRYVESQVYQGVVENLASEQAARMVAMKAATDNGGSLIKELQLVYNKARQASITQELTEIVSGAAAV
Sequence (P0ABB4 2-460): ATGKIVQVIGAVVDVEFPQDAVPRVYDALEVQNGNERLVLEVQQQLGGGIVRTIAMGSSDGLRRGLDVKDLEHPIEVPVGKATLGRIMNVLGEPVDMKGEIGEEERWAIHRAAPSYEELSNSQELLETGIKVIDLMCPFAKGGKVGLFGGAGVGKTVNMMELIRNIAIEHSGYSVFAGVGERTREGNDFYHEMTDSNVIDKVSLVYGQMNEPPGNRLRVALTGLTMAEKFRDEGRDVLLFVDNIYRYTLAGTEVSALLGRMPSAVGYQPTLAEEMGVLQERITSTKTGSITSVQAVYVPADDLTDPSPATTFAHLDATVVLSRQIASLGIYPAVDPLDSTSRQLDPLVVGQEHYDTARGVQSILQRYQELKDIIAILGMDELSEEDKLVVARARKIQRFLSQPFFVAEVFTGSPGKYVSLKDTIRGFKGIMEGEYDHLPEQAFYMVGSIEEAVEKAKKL
Sequence (P0ABB0 whole entry): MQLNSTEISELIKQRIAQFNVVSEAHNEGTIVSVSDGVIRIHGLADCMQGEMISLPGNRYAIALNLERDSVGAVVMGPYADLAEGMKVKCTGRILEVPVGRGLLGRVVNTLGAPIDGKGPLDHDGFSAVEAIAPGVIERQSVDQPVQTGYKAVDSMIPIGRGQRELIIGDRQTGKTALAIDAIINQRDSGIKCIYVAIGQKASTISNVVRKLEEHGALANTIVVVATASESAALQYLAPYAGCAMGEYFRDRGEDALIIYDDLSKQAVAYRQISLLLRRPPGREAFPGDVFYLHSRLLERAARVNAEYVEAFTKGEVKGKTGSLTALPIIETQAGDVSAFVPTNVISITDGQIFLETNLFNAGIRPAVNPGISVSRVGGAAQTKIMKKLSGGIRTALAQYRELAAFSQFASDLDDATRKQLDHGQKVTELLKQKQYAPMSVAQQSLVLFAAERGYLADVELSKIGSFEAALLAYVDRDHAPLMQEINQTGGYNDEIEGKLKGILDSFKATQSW
ASSAY READOUT: Extent of inhibition of ATPase activity, in words

COMPOUND | MEASURED VALUE
Oc1cc(O)c2c(c1)O[C@H](c1ccc(O)c(O)c1)[C@H](O)C2 [(−)-Epicatechin] | complete inhibition
CC(N)C12CC3CC(CC(C3)C1)C2 (stereo not drawn) [Rimantadine, reference compound] | complete inhibition
NC12CC3CC(CC(C3)C1)C2 [Amantadin, reference compound] | complete inhibition

----------
Each record here notes measured Residual ATPase Activity (%).
biological target: E. coli ATP synthase (purified F1 or membrane bound F1Fo) (Escherichia coli, UniProt P0ABA6+P0ABB0+P0ABB4); assay type: biochemical; conditions: left over ATPase activity at maximal inhibition; 60 min preincubation
Lab book: enter the figure in %, no units written.

Here are 8 compounds together with their reported answers.
COMPOUND | Residual ATPase Activity (%)
COc1ccc([C@@H]2CC(=O)c3c(O)cc(O[C@@H]4O[C@H](CO[C@@H]5O[C@@H](C)[C@H](O)[C@@H](O)[C@H]5O)[C@@H](O)[C@H](O)[C@H]4O)cc3O2)cc1O | 40
O=c1cc(-c2ccccc2)oc2cc(O)c(O)c(O)c12 | 0
O=c1cc(-c2ccc(O)cc2)oc2cc(O)cc(O)c12 | 60
O=c1c(O)c(-c2ccc(O)cc2O)oc2cc(O)cc(O)c12 [Morin hydrate] | 0
Oc1cc(O)c2c(c1)O[C@H](c1ccc(O)c(O)c1)[C@H](O)C2 [(−)-Epicatechin] | 0
CC(N)C12CC3CC(CC(C3)C1)C2 (stereo not drawn) [Rimantadine, reference compound] | 0
COc1cc(C2Oc3cc([C@H]4Oc5cc(O)cc(O)c5C(=O)[C@@H]4O)ccc3OC2CO)ccc1O (stereo partly drawn) | 0
O=c1cc(-c2ccccc2)oc2cc(O)cc(O)c12 | 40

Now turn to the next compound.
q: Requested read-out: Residual ATPase Activity (%). Entry: NC12CC3CC(CC(C3)C1)C2 [Amantadin, reference compound]
a: 0

----------
Here, each record is paired with measured Growth yield in limiting glucose (%) data.
system: E. coli strain pBWU13.4/DK8; assay: Growth yield in limiting glucose medium in presence of bioflavonoid compounds; format: cell-based, Escherichia coli; conditions: OD595 after ~20 hours growth at 37 °C; control 100, null 45
Give the value in % but do not write % after it.

Sample records with Growth yield in limiting glucose (%):
COMPOUND | ASSAY READOUT | MEASURED VALUE
C[C@@H]1O[C@@H](OC[C@H]2O[C@@H](Oc3c(-c4ccc(O)c(O)c4)oc4cc(O)cc(O)c4c3=O)[C@H](O)[C@@H](O)[C@@H]2O)[C@H](O)[C@H](O)[C@H]1O [Rutin hydrate] | Growth yield in limiting glucose (%) | 87
O=c1cc(-c2ccccc2)oc2cc(O)c(O)c(O)c12 | Growth yield in limiting glucose (%) | 48
CC(N)C12CC3CC(CC(C3)C1)C2 (stereo not shown) [Rimantadine, reference compound] | Growth yield in limiting glucose (%) | 52
Oc1cc(O)c2c(c1)O[C@H](c1ccc(O)c(O)c1)[C@H](O)C2 [(−)-Epicatechin] | Growth yield in limiting glucose (%) | 53

q: Can you share its Growth yield in limiting glucose (%)? I mean this compound: O=c1c(O)c(-c2ccc(O)cc2O)oc2cc(O)cc(O)c12 [Morin hydrate]
a: 46

q: For NC12CC3CC(CC(C3)C1)C2 [Amantadin, reference compound] , what is its reported Growth yield in limiting glucose (%)?
a: 51

q: GET /values?readout=Growth yield in limiting glucose (%)&item= `O=c1cc(-c2ccccc2)oc2cc(O)cc(O)c12`
a: 73

q: For the compound `O=c1cc(-c2ccc(O)c(O)c2)oc2cc(O)cc(O)c12` , what Growth yield in limiting glucose (%) is on record?
a: 87
